# Study system: Keap1/Nrf2 (Homo sapiens, UniProt Q14145)
# Sequence (Q16236 whole entry): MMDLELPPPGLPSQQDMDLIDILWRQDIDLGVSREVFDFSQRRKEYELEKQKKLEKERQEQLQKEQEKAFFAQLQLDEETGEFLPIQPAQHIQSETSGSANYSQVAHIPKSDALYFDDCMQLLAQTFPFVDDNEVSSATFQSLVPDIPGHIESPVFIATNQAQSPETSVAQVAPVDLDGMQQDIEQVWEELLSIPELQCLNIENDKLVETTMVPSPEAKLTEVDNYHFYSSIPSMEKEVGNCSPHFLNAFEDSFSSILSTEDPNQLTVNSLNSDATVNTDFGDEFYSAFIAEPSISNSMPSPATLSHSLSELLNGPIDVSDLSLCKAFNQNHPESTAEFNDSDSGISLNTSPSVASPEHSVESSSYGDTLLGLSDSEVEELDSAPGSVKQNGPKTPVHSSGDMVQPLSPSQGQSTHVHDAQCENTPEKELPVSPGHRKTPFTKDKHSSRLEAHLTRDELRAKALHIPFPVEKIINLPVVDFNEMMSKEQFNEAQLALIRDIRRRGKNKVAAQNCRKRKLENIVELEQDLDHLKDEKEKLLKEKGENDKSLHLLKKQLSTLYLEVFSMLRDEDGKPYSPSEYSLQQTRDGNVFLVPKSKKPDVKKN
# Sequence (Q14145 whole entry): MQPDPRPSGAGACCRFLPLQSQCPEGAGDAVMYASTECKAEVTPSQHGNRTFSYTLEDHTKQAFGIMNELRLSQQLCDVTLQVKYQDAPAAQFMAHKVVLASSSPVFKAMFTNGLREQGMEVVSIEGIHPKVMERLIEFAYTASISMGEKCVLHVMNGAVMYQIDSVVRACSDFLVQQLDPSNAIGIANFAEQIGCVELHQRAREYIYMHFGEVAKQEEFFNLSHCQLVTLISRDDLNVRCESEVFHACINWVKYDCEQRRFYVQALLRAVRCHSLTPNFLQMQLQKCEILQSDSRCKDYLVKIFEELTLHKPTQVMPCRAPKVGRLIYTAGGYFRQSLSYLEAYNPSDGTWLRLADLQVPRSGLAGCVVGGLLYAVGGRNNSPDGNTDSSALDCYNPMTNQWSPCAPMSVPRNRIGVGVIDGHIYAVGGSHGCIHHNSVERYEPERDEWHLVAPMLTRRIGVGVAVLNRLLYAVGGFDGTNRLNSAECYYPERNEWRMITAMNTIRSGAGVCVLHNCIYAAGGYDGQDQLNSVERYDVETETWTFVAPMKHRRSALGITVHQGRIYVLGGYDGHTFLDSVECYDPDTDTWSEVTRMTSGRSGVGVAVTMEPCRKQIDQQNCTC
# Assay name: Inhibition of human Keap1/PL-tagged human Nrf2 protein-protein interaction in human PathHunter U2OS Keap1-NRF2 Nuclear Translocation cells assessed as increase in Nrf2 translocation incubated for 3 hrs by luminescence based analysis
# Assay type: cell-based
Endpoint label: EC50 (nM)
Give bare numbers, in nM.

Look over these answered cases.
Line notation | Study system | Endpoint label | Observed measurement
Cc1ccc(S(=O)(=O)c2nc(S(=O)(=O)c3ccccc3)sc2N2CCN(C)CC2)cc1 | Keap1/Nrf2 (Homo sapiens, UniProt Q14145) | EC50 | 338
CCS(=O)(=O)c1nc(S(=O)(=O)c2ccccc2Cl)c(N2CCP(C)(=O)CC2)s1 | Keap1/Nrf2 (Homo sapiens, UniProt Q14145) | EC50 | 4210
CCP1(=O)CCN(c2sc(S(=O)(=O)CC)nc2S(=O)(=O)c2cccc(Cl)c2Cl)CC1 | Keap1/Nrf2 (Homo sapiens, UniProt Q14145) | EC50 | 527

I have 2 molecules here; please give me EC50 for each one.
1. CCS(=O)(=O)c1nc(S(=O)(=O)c2ccc(-c3cccn(C)c3=O)cc2)c(N2CCN(C)C(=O)C2)s1
2. Cc1ccc(S(=O)(=O)c2nc(S(=O)(=O)c3ccccc3)sc2N2CCOCC2)cc1

1490
270

###

# Assay name: In vivo activation of Nrf2 in male db/db mouse assessed as increase in NQO1 mRNA expression in kidney at 100 mg/kg, po administered via gavage and measured after 6 hrs relative to control
# Type: functional
Threshold check on Activity: strictly below 200% is MET; on or above 200% is NOT MET.

Line notation | Class assignment
CCP1(=O)CCN(c2sc(S(=O)(=O)CC)nc2S(=O)(=O)c2cccc(Cl)c2Cl)CC1 | MET

Please state whether Activity is below 200% for CCS(=O)(=O)c1nc(S(=O)(=O)c2ccccc2C#N)c(N2CCN(C)C(=O)C2)s1
NOT MET

Please state whether Activity is below 200% for CN1CCN(c2sc(S(=O)(=O)C3CC3)nc2S(=O)(=O)c2ccccc2Cl)CC1=O
MET

Please state whether Activity is below 200% for CCS(=O)(=O)c1nc(S(=O)(=O)c2ccccc2C#N)c(N2CCN(C)C(=O)[C@H]2C)s1
MET

Please state whether Activity is below 200% for CCS(=O)(=O)c1nc(S(=O)(=O)c2ccccc2Cl)c(N2CCN(C)C(=O)[C@H]2C)s1
NOT MET

###

What EC50 was measured for each of the following?
# Study system: Keap1/Nrf2 (Homo sapiens)
# Assay name: Inhibition of Keap1/Nrf2 protein-protein interaction in human HepG2 cells transfected with beta-lactamase under the control of ARE incubated for 16 hrs by ARE-reporter based FRET assay
# Format: cell-based
One number for each entry, in µM.

Look over these answered cases.
Line notation | EC50 / µM
CCS(=O)(=O)c1nc(S(=O)(=O)c2ccc(-c3cccn(C)c3=O)cc2)c(N2CCN(C)C(=O)C2)s1 | 0.516
CCS(=O)(=O)c1nc(S(=O)(=O)c2ccccc2Cl)c(N2CCP(C)(=O)CC2)s1 | 0.946
CCP1(=O)CCN(c2sc(S(=O)(=O)CC)nc2S(=O)(=O)c2cccc(Cl)c2Cl)CC1 | 0.16

Okay, now this compound:
Please give the measured EC50 for this compound: Cc1ccc(S(=O)(=O)c2nc(S(=O)(=O)c3ccccc3)sc2N2CCN(C)CC2)cc1
0.115

###

# Assay name: in vitro
# Type: ADME, Microsome
# Details: human, pooled liver microsomes, time < 55 min, read-out: CLH
Endpoint label: CLint scaled at 0.75 h, 0.1 µM (mL/min/kg)
One number for each entry, in mL/min/kg.

Line notation | CLint scaled at 0.75 h, 0.1 µM (mL/min/kg)
CCP1(=O)CCN(c2sc(S(=O)(=O)CC)nc2S(=O)(=O)c2cccc(Cl)c2Cl)CC1 | 2.6

Okay, now this molecule:
Please give the measured CLint scaled at 0.75 h, 0.1 µM for this molecule: CCS(=O)(=O)c1nc(S(=O)(=O)c2ccc(-c3cccn(C)c3=O)cc2)c(N2CCN(C)C(=O)C2)s1
8.5

###

What CLint scaled at 0.75 h, 0.1 µM was measured for each of the following?
# Assay name: in vitro
# Assay type: ADME, Microsome
# Details: mouse, pooled liver microsomes, time < 55 min, read-out: CLH
For clarity, give the value followed by its unit.

Line notation | CLint scaled at 0.75 h, 0.1 µM
CCS(=O)(=O)c1nc(S(=O)(=O)c2ccc(-c3cccn(C)c3=O)cc2)c(N2CCN(C)C(=O)C2)s1 | 22 mL/min/kg

Okay, now this compound:
Please give the measured CLint scaled at 0.75 h, 0.1 µM for this compound: CCP1(=O)CCN(c2sc(S(=O)(=O)CC)nc2S(=O)(=O)c2cccc(Cl)c2Cl)CC1
52 mL/min/kg

Sourced from ChEMBL document CHEMBL6092223
